Settings: in 1,4-dioxane, 313.15 K
readoutLabel: solubility (mole fraction)

>>> df
                                   compound  recordedmeasurement
0  COc1c(N2CCNC(C)C2)c(F)cc2c(=O)c(C(=O)O)cn(C3CC3)c12 (stereo unspecified)              0.00198

====

Conditions: in acetonitrile, 288.15 K
readoutLabel: solubility (mole fraction)

                                   molecule  recordedmeasurement
0  COc1c(N2CCNC(C)C2)c(F)cc2c(=O)c(C(=O)O)cn(C3CC3)c12 (stereo unspecified)              0.00208
